- ASSAY SYSTEM: EGFR (d746-750) (Homo sapiens, UniProt P00533, DEL746-750)
- Construct: purchased Carna Biosciences, Inc
- Sequence (P00533 with tags, fused parts or gaps DEL746-750 limits assumed): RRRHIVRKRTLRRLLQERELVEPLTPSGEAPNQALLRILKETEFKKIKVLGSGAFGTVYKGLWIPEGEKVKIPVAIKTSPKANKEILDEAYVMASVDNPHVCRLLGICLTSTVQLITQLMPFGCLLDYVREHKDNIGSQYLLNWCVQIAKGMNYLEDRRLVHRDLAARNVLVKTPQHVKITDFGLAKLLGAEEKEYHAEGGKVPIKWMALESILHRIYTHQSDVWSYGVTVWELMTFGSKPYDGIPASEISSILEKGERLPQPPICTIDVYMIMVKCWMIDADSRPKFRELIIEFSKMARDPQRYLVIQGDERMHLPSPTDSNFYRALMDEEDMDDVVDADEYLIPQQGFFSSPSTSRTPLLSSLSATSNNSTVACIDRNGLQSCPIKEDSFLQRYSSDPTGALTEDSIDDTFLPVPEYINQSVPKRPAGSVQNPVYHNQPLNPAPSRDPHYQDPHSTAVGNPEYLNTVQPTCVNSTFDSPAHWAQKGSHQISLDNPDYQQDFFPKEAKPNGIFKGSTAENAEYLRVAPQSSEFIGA
- MEASUREMENT DESCRIPTION: EGFR (d746-750) kinase inhibitory activity (in vitro)
- Assay type: biochemical
- TEST PARAMETERS: recombinant human protein, ATP 5 μM, 90 minutes
pIC50: −log10 of the molar value.
QUANTITY MEASURED: pIC50

compound=Nc1ncnc2c1c(-c1cnc3ccccc3c1)c1n2C[C@@H](NC(=O)/C=C/Cl)CC1 number=9.30

1: Nc1ncnc2c1c(-c1cccc(NC(=O)c3ccccc3)c1)c1n2CCCC1 [Comp. Ex. 1, reference compound]
2: C=CC(=O)N[C@@H]1CCCc2c(-c3cnc4ccccc4c3)c3c(N)ncnc3n2C1
3: C=CC(=O)N[C@H]1CCc2c(-c3cnc4ccccc4c3)c3c(N)ncnc3n2CC1
Query: Reorder the items by pIC50, least to greatest. Give the labels in the order specified.
Reply: 1, 2, 3
(1: 5.82, 2: 6.57, 3: 8.74)
